assay: HepG2 cytotoxicity, primary screen, cytotoxicity control for P. falciparum antimalarial project, cell-based, ATP luminescence (AID 2303); settings: HepG2 viability, 24-48 h, at 10 µM, stronger effect = higher value;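 also: 0% = DMSO wells and 100% = digitonin-killed cells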
Here the recorded inhibition is given for each entry.
Field format: number, assumed %, no unit text.

| COMPOUND | inhibition / % |
| --- | --- |
| COc1ccc(F)cc1-c1ccccc1CNC(=O)c1cnn(-c2ccc([N+](=O)[O-])cc2)c1C(F)(F)F | -3 |
| CCCN(CC1CC1)c1ncc(-c2cccc(CNCCC3CCCN3C)c2)cn1 (centres undefined) | 77 |
| OC1(C(F)(F)F)CC(c2ccccc2)=NN1c1nncc(-c2ccccc2)n1 (centres undefined) | -3 |
| O=C(Nc1ccc(OC2CCN(Cc3ccc(F)cc3)C2)c(Cl)c1)c1ccc(F)cc1 (centres undefined) | 10 |
| COc1cc(Nc2ccnc3cc(-c4ccncc4)ccc23)cc(OC)c1OC | 9 |
| COc1ccc2ncc(F)c([C@@H](O)CN3CCC(NCc4ccc5c(c4)NCCS5)CC3)c2n1 | 77 |
| CC(C)(C)c1ccc(NC(=O)c2ccc(CN3CCCN(Cc4cccc(F)c4)CC3)cc2)cc1 | 51 |
| FC(F)(F)c1ccc2nc(-c3ccc(-c4ccc(CN5CCN(c6cnccn6)CC5)cc4)s3)[nH]c2c1 | 23 |
| O=C(c1cc(OC(F)(F)F)ccc1O)N1CCN(c2ccccc2)CC1 | -10 |
| COc1ccccc1NS(=O)(=O)c1cc(C(=O)Nc2ccc(N3CCOCC3)c(S(=O)(=O)Nc3ccccc3Cl)c2)ccc1Cl | -3 |

Would you kindly look at the next entry?
Quick check: inhibition of Cc1ccc(NC(=O)C(C)Sc2n[nH]c(-c3ccccc3Br)n2)cc1 (centres undefined) ?
2

###

target: Calcium-dependent protein kinase 1 (Plasmodium falciparum (isolate 3D7)); test: PfCDPK1 kinase inhibitors, biochemical, TCAMS library (AID 1159585); conditions: recombinant PfCDPK1, Kinase-Glo ATP depletion luminescence;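 also: inhibitors leave more ATP so luminescence rises with inhibition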
Potency and affinity values are given separately. Calls of active or inactive are those of the source. Cut-off not given; nearly all actives show IC50 up to about 0.98 µM.
MEASUREMENT LABEL: outcome

Solved entries:
| COMPOUND | MEASUREMENT LABEL | OBSERVED VALUE |
| --- | --- | --- |
| CCN(CC)CCNc1ccnc2ccc3ccccc3c12 | outcome | inactive |
| FC(F)(F)c1ccc2nc(-c3ccc(-c4ccc(CNCc5ccccc5)cc4)cc3)[nH]c2c1 | outcome | inactive |
| CCCOc1cccc(C(=O)N[C@@H](Cc2ccccc2)[C@H](O)CNCc2ccccc2OC)c1 | outcome | inactive |
| NC(=O)c1cc2nc(NC3CCC3)nc(Nc3cccc4[nH]ncc34)c2[nH]1 | outcome | inactive |
| CCc1ccc(CN2CCC(NC(=O)c3ccc(-c4ccccc4F)s3)CC2)cc1 | outcome | inactive |
| O=C(Nc1ccc(C(F)(F)F)cc1)c1ccc(S(=O)(=O)NCC2CCCN(CC3CCCCC3)C2)cc1 (stereo not given) | outcome | inactive |

Quick check: outcome of CN(C)CCOc1cc(NC(=O)Nc2ccc3c(c2)CCCC3=O)ccc1I ?
inactive

Quick check: outcome of O=C(NCc1ccc(Cl)cc1)c1ccc(CN2CCCN(Cc3cccc(O)c3)CC2)cc1 ?
inactive

Quick check: outcome of CS(=O)(=O)c1ccc(-c2cncc(Cl)n2)cc1 ?
inactive

Quick check: outcome of CCC(CO)NCC(O)Cn1c2ccc(Br)cc2c2cc(Br)ccc21 (stereo not given) ?
inactive

###

target: L-lactate dehydrogenase (Plasmodium falciparum (isolate CDC / Honduras)) (UniProt Q27743); assay: PfLDH activity inhibition – cell lysate, 3D7 strain, counter-screen for P. falciparum growth inhibition project (AID 2304);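 also: 0% = vehicle and 100% = reference inhibitor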; conditions: P. falciparum 3D7 crude extract, LDH APAD/NBT absorbance; at 2 µM; stronger effect = higher value
Sequence (Q27743 whole entry, looked up): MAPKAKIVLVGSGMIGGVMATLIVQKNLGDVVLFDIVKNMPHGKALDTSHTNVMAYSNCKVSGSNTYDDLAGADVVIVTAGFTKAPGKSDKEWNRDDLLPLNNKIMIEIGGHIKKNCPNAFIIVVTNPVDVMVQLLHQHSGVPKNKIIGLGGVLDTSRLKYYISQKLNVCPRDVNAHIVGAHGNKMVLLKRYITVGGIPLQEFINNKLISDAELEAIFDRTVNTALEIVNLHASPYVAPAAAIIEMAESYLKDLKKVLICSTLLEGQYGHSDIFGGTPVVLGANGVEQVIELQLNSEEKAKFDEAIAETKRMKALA
Here the recorded inhibition is given for each entry.
Field format: number, assumed %, no unit text.

| SMI | RESULT UNIT | inhibition |
| --- | --- | --- |
| CC1(C)N=C(N)N=C(N)N1OCCCOc1cccc(C(=O)O)c1 | % | -6 |

Quick check: inhibition of C#CCCOc1ccc2ccccc2c1CNCCCCCCNCc1c(OCCC#C)ccc2ccccc12 ?
2

Quick check: inhibition of Cc1cccc2[nH]c(-c3cccc(-c4cccc(NC(=O)c5ccncc5)c4)c3)nc12 ?
-3

Quick check: inhibition of O=C(NCc1ccc(C(=O)NC2CCCCC2)cc1)c1ccc(O)c(-c2ccc(Cl)c(Cl)c2)c1 ?
-6

Quick check: inhibition of Cc1cccc2[nH]c(-c3ccc(-c4ccc(C(=O)NCCc5cn(C)cn5)cc4)s3)nc12 ?
-2

Quick check: inhibition of C=CCc1cccc(CN2CCC(c3cc(=O)[nH]c(-c4ccccn4)n3)CC2)c1O ?
-2

Quick check: inhibition of O=C(N[C@H]1CCN(Cc2ccc(OCCCN3CCCCC3)cc2)C1)c1ccc(Cl)c(Cl)c1 ?
0

Quick check: inhibition of O=C(/C=C/c1ccc(Cl)c(Cl)c1)NCCCCCN1CCCN(C(=S)Nc2ccc(Cl)c(Cl)c2)CC1 ?
-3

Quick check: inhibition of CCOc1ccc2nc(-c3ccccc3)cc(NN=Cc3ccncc3)c2c1 ?
0

###

assay: antimalarial activity against Dd2 strain (AID 2302);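 also: 0% = DMSO untreated growth and 100% = chloroquine plus artemisinin killed control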; settings: P. falciparum Dd2 in RBCs, LDH growth readout, 72 h; at 2 µM
Activity calls are given as the source filed them.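 The calls were made as follows: active = growth inhibition above 50% at the single 2 µM test dose, taken to imply half-maximal potency below 2 µM; inactive = the rest.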
Write down the outcome that applies. Available outcomes: active, inactive

| MOLECULE | LABEL |
| --- | --- |
| CN1CCN(CCCN(Cc2csc(-c3ccc(CNCc4ccccc4)cc3)n2)S(=O)(=O)c2ccccc2Cl)CC1 | active |
| CN1CCCC(CN2CCN(Cc3ccc(-c4ccc(-c5nc6ccccc6[nH]5)cc4)cc3)CC2)C1 (stereo not given) | active |
| CCCc1cc(C)ccc1OCCCON1C(NC(=O)OCC)=NC(NC(=O)OCC)=NC1(C)C | active |
| CON(CCCN(C)C)C(=N)N | inactive |
| CN(C)CC1CCCN1Cc1ccccc1-c1cnn(C)c(=O)c1Oc1ccc(F)cc1 (stereo not given) | inactive |

Assay outcome for CCCCCCCN1CCC(CCNc2ccnc3ccc(OC)cc23)CC1 : what was it?
active

Assay outcome for O=C(Nc1ccon1)c1cc(-c2cccnc2)nc2ccc(Cl)cc12 : what was it?
active

Assay outcome for COc1ccc(-c2cccc(NC(=O)c3ccc(Cl)cc3)c2)cc1CN1CCCC1 : what was it?
active

Assay outcome for CCCCc1ccc(NC(=O)Nc2cccc(CCNCc3ccccc3)c2)cc1 : what was it?
inactive

Assay outcome for CN1CCCC1CCNc1ncc2c(-c3ccc(NC(=O)Nc4cc(C(F)(F)F)ccc4F)cc3)nn(C)c2n1 (stereo not given) : what was it?
active

###

test: HepG2 cytotoxicity, primary screen, cytotoxicity control for P. falciparum antimalarial project, cell-based, ATP luminescence (AID 2303); settings: HepG2 viability, 24-48 h, at 10 µM, stronger effect = higher value;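 also: 0% = DMSO wells and 100% = digitonin-killed cells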
Note to self: use rule met only for inhibition readings below 40%; a reading exactly at 40% still gets rule not met.

Worked examples follow.
| COMPOUND | LABEL |
| --- | --- |
| Cc1nc2c(c(C)nn2C(C)(C)C)c(C)c1CCC(=O)Nc1ccc(CN2CCCC2)cc1 | rule met |
| CCCCCCCN1CCC(CCNc2ccnc3ccc(OC)cc23)CC1 | rule met |
| COc1ccc(Cl)c(CC2c3cc(O)c(Cl)cc3CCN2C)c1 (centres undefined) | rule met |
| CC(C)=CCc1c(-c2ccc(O)cc2O)oc2c3c(cc(O)c2c1=O)OC(C)(C)C=C3 | rule met |
| CN(c1ccc2c(c1)nc(Nc1cc(C(C)(C)C)on1)n2C)c1ccnc(Nc2ccc(CS(C)(=O)=O)cc2)n1 | rule not met |

Lab note: confirm whether the reported inhibition for this compound is below 40%, equality not counting. compound: Cc1nc2ccc(Nc3nccc(-c4c(-c5cccc(NC(=O)c6c(F)cccc6F)c5)nn5ccccc45)n3)cc2nc1C
rule not met

Lab note: confirm whether the reported inhibition for this compound is below 40%, equality not counting. compound: CC(C)CNCc1cccc(-c2ccc(CN(C(=O)NCCc3ccccc3)C3CCN(Cc4ccccc4)CC3)cc2)c1
rule not met

Lab note: confirm whether the reported inhibition for this compound is below 40%, equality not counting. compound: Cc1nc(-c2nc(NCCc3ccncc3)ncc2-c2ccsc2)sc1C
rule met

###

Here the recorded inhibition is given for each entry.
test: HepG2 cytotoxicity, primary screen, cytotoxicity control for P. falciparum antimalarial project, cell-based, ATP luminescence (AID 2303); conditions: HepG2 viability, 24-48 h, at 10 µM, stronger effect = higher value;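 also: 0% = DMSO wells and 100% = digitonin-killed cells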
Field format: number, assumed %, no unit text.

Solved entries:
| COMPOUND | RESULT UNIT | inhibition |
| --- | --- | --- |
| Cc1cc(NC(=O)CCCN2CCN(c3cccc(Cl)c3Cl)CC2)ccc1N1CCN(C(C)C)CC1 | % | 86 |
| c1cc(C2=N[C@H]3CCCC[C@@H]3N2)ccc1OCCCOc1ccc(C2=N[C@@H]3CCCC[C@H]3N2)cc1 | % | -7 |
| CCN(CC)CCCC(C)Nc1c2ccccc2nc2ccc3ccccc3c12 (stereo not given) | % | 24 |
| C=CCOC(=O)N1CCC(CNCc2ccc(-c3ccc(-c4nc5ccc(C(F)(F)F)cc5[nH]4)cc3)cc2)C1 (stereo not given) | % | 44 |
| CC(=O)Nc1nc(C(=O)Nc2ccc(-c3cccc(-c4nc5ccc(C(F)(F)F)cc5[nH]4)c3)cc2)cs1 | % | 79 |

Quick check: inhibition of Clc1ccc(-n2cnc3c(Nc4ccc(Oc5ccccc5)cc4)ncnc32)cc1Cl ?
4

Quick check: inhibition of O=C(NCCCCN1CCC(c2ccc3ccccc3c2)CC1)c1ccc(NC(=O)c2ccc(Cl)cc2)cc1 ?
24
